B1: HDV Ribozyme (parent)
chain: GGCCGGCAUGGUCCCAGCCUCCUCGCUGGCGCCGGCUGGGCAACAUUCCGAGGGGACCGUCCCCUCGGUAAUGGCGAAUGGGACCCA

# Variants of: B1
# method: self-cleavage, relative activity (ratio to wild type); higher = more cleavage; co-transcriptional
Think of 0.5 as a floor: if self-cleavage stands on it or above, it is Y; beneath it, N.

Previously resolved entries follow.
GGCCGGCAUGGUCCCAGCCUCCUCGCUGGCGCCGGCUGGGCAACAUUCCGACGGGACCGUCCCCUCGGUAAUCGCGAAUGGGACCCA [G52C G73C] = N
GGCCGGCAUGGUCCCAGCCUCCUCGCUGGCGCCGGCUGGGCAACAUUCCGAGGGGACCGUCCCCUCGGUAAUGUGGAAUGGGACCCA [G74U C75G] = N
GGCCGGCAUGGUCCCAGUCUCCUCGCUGGCGCCGGCUGGGCAACAUUCCGAGGGGAGCGUCCCCUCGGUAAUGGCGAAUGGGACCCA [C18U C57G] = Y
GGCCGGCAAGGUCCCAGCCUCCUCGCUGGCGCCGGCUGGGCAACAUUGCGAGGGGACCGUCCCCUCGGUAAUGGCGAAUGGGACCCA [U9A C48G] = Y
GGCCGGCAUGGUCCCAACCUCCUCGCUGGCGCCGGCUGGGCAACAUUCCGAGGGGACCGUCCCCUCGGUGAUGGCGAAUGGGACCCA [G17A A70G] = Y
GGCCGGCAUGGUGCCAGCCUCCUCGCUGGCGCCGGCUGGGCAACAUUCCGAGGGGACCGUCCCCUCGGUAAUGGCGAAUGGGACUCA [C13G C85U] = N
GGCCGGCAUGGUCCCAGCCUCCCCGCUGGCGCCGGCUGGGCAACAUUCCGAGGGGACCGUCCCCUCGGUAAUGGCGAAUGGGACCCC [U23C A87C] = Y
GGCCGGCAUGGUCCCAGCCUCCUCGCUGGCGCCGGCUGGGCAACAUUCCGAGGGGACCGUCCCCUCGGUCCUGGCGAAUGGGACCCA [A70C A71C] = Y

input: // inclusive: self-cleavage at least 0.5? input: GGCCGGCAUGGUCCCAGCCUCCUCGCUGGCGCCGGUUGGGCAACAUUCCGAGAGGACCGUCCCCUCGGUAAUGGCGAAUGGGACCCA [C36U G53A]
output: Y

input: // inclusive: self-cleavage at least 0.5? input: GGCCGGCAUGGUCCCAGCCUCCUCGCUGGCGCCGGCUGGGCAACAUUCCGAGGGGAGCGUCCCCUCGGUAAUGGCGAAUGGGACCCA [C57G]
output: Y

input: // inclusive: self-cleavage at least 0.5? input: GGCCGGCAUGGUCCCAGCCUCCUCGCUGGCGCCGGCUGGGCAACAUUCCGAGGGGACCGUCCCCUCGGUAAUGGCGAACGGGACACA [U79C C85A]
output: N
